# target: human wildtype CFTR (Homo sapiens, UniProt P13569)
# Construct: expressed in transfected cells; host or cells: Fischer rat thyroid (FRT) cells
# Sequence (P13569 whole entry): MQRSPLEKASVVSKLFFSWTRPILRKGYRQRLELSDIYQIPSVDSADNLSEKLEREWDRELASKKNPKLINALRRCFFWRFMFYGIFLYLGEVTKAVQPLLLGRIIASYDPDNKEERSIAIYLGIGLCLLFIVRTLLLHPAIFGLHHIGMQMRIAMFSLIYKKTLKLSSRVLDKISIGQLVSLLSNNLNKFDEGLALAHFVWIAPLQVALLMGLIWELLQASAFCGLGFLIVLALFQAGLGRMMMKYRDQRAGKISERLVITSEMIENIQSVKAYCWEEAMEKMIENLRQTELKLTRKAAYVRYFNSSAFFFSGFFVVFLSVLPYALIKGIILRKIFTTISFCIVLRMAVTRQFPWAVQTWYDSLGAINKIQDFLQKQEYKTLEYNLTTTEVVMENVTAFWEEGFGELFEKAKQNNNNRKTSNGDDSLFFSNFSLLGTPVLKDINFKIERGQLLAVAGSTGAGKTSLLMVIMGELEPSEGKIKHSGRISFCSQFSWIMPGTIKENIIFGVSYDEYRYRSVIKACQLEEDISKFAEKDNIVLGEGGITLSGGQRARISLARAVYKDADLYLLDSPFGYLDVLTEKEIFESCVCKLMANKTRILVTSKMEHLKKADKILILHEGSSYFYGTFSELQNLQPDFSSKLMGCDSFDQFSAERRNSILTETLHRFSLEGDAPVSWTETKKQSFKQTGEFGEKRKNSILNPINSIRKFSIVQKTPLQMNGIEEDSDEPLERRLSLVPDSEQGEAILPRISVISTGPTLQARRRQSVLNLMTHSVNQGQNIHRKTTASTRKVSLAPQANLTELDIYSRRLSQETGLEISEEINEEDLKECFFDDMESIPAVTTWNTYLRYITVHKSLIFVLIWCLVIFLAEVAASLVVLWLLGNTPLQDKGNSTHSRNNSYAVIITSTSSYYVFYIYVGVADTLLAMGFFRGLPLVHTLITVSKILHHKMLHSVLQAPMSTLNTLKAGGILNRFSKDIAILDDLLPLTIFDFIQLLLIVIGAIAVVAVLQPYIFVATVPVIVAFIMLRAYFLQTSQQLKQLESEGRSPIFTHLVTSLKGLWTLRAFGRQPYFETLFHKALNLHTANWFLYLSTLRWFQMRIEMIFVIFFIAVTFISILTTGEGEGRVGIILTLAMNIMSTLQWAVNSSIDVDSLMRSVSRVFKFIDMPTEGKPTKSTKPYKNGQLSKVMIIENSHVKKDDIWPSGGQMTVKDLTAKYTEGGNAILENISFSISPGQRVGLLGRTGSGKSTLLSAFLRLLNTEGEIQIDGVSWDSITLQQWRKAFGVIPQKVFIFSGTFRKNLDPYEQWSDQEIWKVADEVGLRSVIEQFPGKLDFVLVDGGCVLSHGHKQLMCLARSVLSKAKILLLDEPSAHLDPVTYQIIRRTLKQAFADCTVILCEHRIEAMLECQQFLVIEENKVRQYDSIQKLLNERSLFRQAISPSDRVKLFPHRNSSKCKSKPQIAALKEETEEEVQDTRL
# experimental.protocol: Fluorescence platereader assay of CFTR-mediated iodide influx (YFP quenching) in FRT cells
# Format: cell-based
# recorded.conditions: FRT; Table 2; screening, 5 μM; read-out: % Inhibition at 5 μM
Entries and their inhibition at 5 µM

compound	comparative.sign	inhibition at 5 µM (%)
Cc1ccc(C2Nc3ccccc3-n3c(-c4ccccc4)c4c(=O)n(C)c(=O)n(C)c4c32)o1 (racemic) [PPQ-102]	=	85
COc1cc(O)ccc1C1Nc2ccccc2-n2c(-c3cccc(C)c3)c3c(=O)n(C)c(=O)n(C)c3c21 (centres unmarked) [PPQ-245]	=	20
Cn1c(=O)c2c(-c3ccccc3)n3c(c2n(C)c1=O)C(c1cccc(F)c1F)Nc1ccccc1-3 (centres unmarked) [PPQ-201]	=	72
Cn1c(=O)c2c(-c3ccccc3)n3c(c2n(C)c1=O)C(c1cccc(O)c1)Nc1ccccc1-3 (centres unmarked) [PPQ-240]	=	30
COc1cc(C2Nc3ccccc3-n3c(-c4cccc(C)c4)c4c(=O)n(C)c(=O)n(C)c4c32)ccc1O (centres unmarked) [PPQ-241]	=	16
Cc1cccc(-c2c3c(=O)n(C)c(=O)n(C)c3c3n2-c2ccccc2NC3c2cccc(F)c2)c1 (centres unmarked) [PPQ-219]	=	53
Cc1cccc(-c2c3c(=O)n(C)c(=O)n(C)c3c3n2-c2ccccc2NC3c2ccccc2F)c1 (centres unmarked) [PPQ-215]	=	67
Cc1ccc(C2Nc3ccccc3-n3c(-c4ccccc4F)c4c(=O)n(C)c(=O)n(C)c4c32)cc1 (centres unmarked) [PPQ-237]	=	20
Cn1c(=O)c2c(-c3ccccc3)n3c(c2n(C)c1=O)C(c1cc([N+](=O)[O-])ccc1O)Nc1ccccc1-3 (centres unmarked)	=	12
COc1ccc(-c2c3c(=O)n(C)c(=O)n(C)c3c3n2-c2ccccc2NC3c2ccccc2F)cc1 (centres unmarked)	<	10
Cn1c(=O)c2c(-c3ccccc3)n3c(c2n(C)c1=O)C(c1ccc(O)cc1O)Nc1ccccc1-3 (centres unmarked)	<	10
Cc1ccccc1-c1c2c(=O)n(C)c(=O)n(C)c2c2n1-c1ccccc1NC2c1ccccc1 (centres unmarked) [PPQ-218]	=	41
Cc1ccccc1-c1c2c(=O)n(C)c(=O)n(C)c2c2n1-c1ccccc1NC2c1cccc(O)c1O (centres unmarked)	<	10
Cc1cc2c(cc1C)-n1c(-c3ccccc3F)c3c(=O)n(C)c(=O)n(C)c3c1C(c1ccccc1F)N2 (centres unmarked)	=	23
Cc1cc2c(cc1C)-n1c(-c3ccccc3)c3c(=O)n(C)c(=O)n(C)c3c1C(c1cc(O)ccc1O)N2 (centres unmarked) [PPQ-247]	=	13
Cc1ccccc1-c1c2c(=O)n(C)c(=O)n(C)c2c2n1-c1ccccc1NC2c1ccc(O)c(O)c1 (centres unmarked)	<	10
Cc1cccc(-c2c3c(=O)n(C)c(=O)n(C)c3c3n2-c2ccccc2NC3c2cccs2)c1 (centres unmarked) [PPQ-114]	=	29
Cc1cccc(-c2c3c(=O)n(C)c(=O)n(C)c3c3n2-c2ccccc2NC3c2ccco2)c1 (centres unmarked) [PPQ-106]	=	49
Cc1ccccc1-c1c2c(=O)n(C)c(=O)n(C)c2c2n1-c1ccccc1NC2c1cccc(F)c1 (centres unmarked) [PPQ-229]	=	57
COc1ccc(-c2c3c(=O)n(C)c(=O)n(C)c3c3n2-c2ccccc2NC3c2cccc(OC)c2)cc1 (centres unmarked)	=	13
COc1ccc(-c2c3c(=O)n(C)c(=O)n(C)c3c3n2-c2ccccc2NC3c2ccc(C)o2)cc1 (centres unmarked) [PPQ-109]	=	12
COc1ccc(C2Nc3ccccc3-n3c(-c4ccc(Cl)cc4)c4c(=O)n(C)c(=O)n(C)c4c32)cc1 (centres unmarked)	<	10
COc1cc(C2Nc3ccccc3-n3c(-c4ccccc4)c4c(=O)n(C)c(=O)n(C)c4c32)ccc1O (centres unmarked) [PPQ-248]	=	5
Cc1cccc(-c2c3c(=O)n(C)c(=O)n(C)c3c3n2-c2ccccc2NC3c2ccc(O)cc2)c1 (centres unmarked) [PPQ-209]	=	71
Cc1cccc(-c2c3c(=O)n(C)c(=O)n(C)c3c3n2-c2ccccc2NC3c2ccccc2)c1 (centres unmarked) [PPQ-250]	=	49
Cc1ccc(-c2c3c(=O)n(C)c(=O)n(C)c3c3n2-c2ccccc2NC3c2ccc(C)o2)cc1 (centres unmarked) [PPQ-110]	=	21
Cn1c(=O)c2c(-c3ccccc3)n3c(c2n(C)c1=O)C(c1cccc(O)c1O)Nc1ccccc1-3 (centres unmarked)	<	10
Cn1c(=O)c2c(-c3ccccc3F)n3c(c2n(C)c1=O)C(c1ccc(Cl)cc1)Nc1ccccc1-3 (centres unmarked)	<	10
Cc1cc2c(cc1C)-n1c(-c3ccccc3)c3c(=O)n(C)c(=O)n(C)c3c1C(c1cccc(O)c1)N2 (centres unmarked) [PPQ-223]	=	36
Cc1ccc(-c2c3c(=O)n(C)c(=O)n(C)c3c3n2-c2ccccc2NC3c2cccc(F)c2F)cc1 (centres unmarked)	=	27
Cc1cc2c(cc1C)-n1c(-c3ccccc3)c3c(=O)n(C)c(=O)n(C)c3c1C(c1ccco1)N2 (centres unmarked) [PPQ-107]	=	24
COc1ccccc1C1Nc2cc(C)c(C)cc2-n2c(-c3ccccc3)c3c(=O)n(C)c(=O)n(C)c3c21 (centres unmarked)	<	10

###

# target: human wildtype CFTR (Homo sapiens)
# Construct: expressed in transfected cells; host or cells: Fischer rat thyroid (FRT) cells
# experimental.protocol: Fluorescence platereader assay of CFTR-mediated iodide influx (YFP quenching) in FRT cells
# Assay type: cell-based
# recorded.conditions: apparent IC50 from concentration-inhibition data, fluorescence platereader assay
measurement.kind: IC50 (nM)

molecule	reported
Cc1cccc(-c2c3c(=O)n(C)c(=O)n(C)c3c3n2-c2ccccc2NC3c2ccc(O)cc2)c1 (stereo not shown)	1700
Cc1ccc(C2Nc3ccccc3-n3c(-c4ccccc4)c4c(=O)n(C)c(=O)n(C)c4c32)o1 (racemic)	800
Cc1cccc(-c2c3c(=O)n(C)c(=O)n(C)c3c3n2-c2ccccc2NC3c2ccccc2F)c1 (stereo not shown)	2500
Cc1ccc(C2Nc3ccccc3-n3c(-c4ccccc4C)c4c(=O)n(C)c(=O)n(C)c4c32)o1 (stereo not shown)	800
COc1cccc(C2Nc3ccccc3-n3c(-c4cccc(C)c4)c4c(=O)n(C)c(=O)n(C)c4c32)c1 (stereo not shown)	1700
Cn1c(=O)c2c(-c3ccccc3)n3c(c2n(C)c1=O)C(c1ccccc1)Nc1ccccc1-3 (stereo not shown)	2500
Cn1c(=O)c2c(-c3ccccc3)n3c(c2n(C)c1=O)C(c1cccc([N+](=O)[O-])c1)Nc1ccccc1-3 (stereo not shown)	1200
Cn1c(=O)c2c(-c3ccccc3)n3c(c2n(C)c1=O)C(c1ccc(O)cc1)Nc1ccccc1-3 (stereo not shown)	4500
Cc1ccc(C2Nc3cc(C)c(C)cc3-n3c(-c4ccccc4F)c4c(=O)n(C)c(=O)n(C)c4c32)o1 (stereo not shown)	1500
Cc1cccc(-c2c3c(=O)n(C)c(=O)n(C)c3c3n2-c2ccccc2NC3c2cccc(F)c2)c1 (stereo not shown)	8000
Cc1cccc(-c2c3c(=O)n(C)c(=O)n(C)c3c3n2-c2ccccc2NC3c2cccc([N+](=O)[O-])c2F)c1 (stereo not shown)	2000
COc1cccc(C2Nc3ccccc3-n3c(-c4ccccc4)c4c(=O)n(C)c(=O)n(C)c4c32)c1 (stereo not shown)	1700
Cc1ccccc1-c1c2c(=O)n(C)c(=O)n(C)c2c2n1-c1ccccc1NC2c1ccccc1 (stereo not shown)	5000
Cn1c(=O)c2c(-c3ccccc3)n3c(c2n(C)c1=O)C(c1ccccc1F)Nc1ccccc1-3 (stereo not shown)	2000
COc1cccc(C2Nc3ccccc3-n3c(-c4ccccc4C)c4c(=O)n(C)c(=O)n(C)c4c32)c1 (stereo not shown)	3000
Cn1c(=O)c2c(-c3ccccc3F)n3c(c2n(C)c1=O)C(c1cccc(Cl)c1)Nc1ccccc1-3 (stereo not shown)	2500

###

Entries and their inhibition at 5 µM
# target: human wildtype CFTR (Homo sapiens, UniProt P13569)
# Construct: expressed in transfected cells; host or cells: Fischer rat thyroid (FRT) cells
# experimental.protocol: Fluorescence platereader assay of CFTR-mediated iodide influx (YFP quenching) in FRT cells
# Format: cell-based
# recorded.conditions: FRT; Table 2; screening, 5 μM; read-out: % Inhibition at 5 μM
# Procedure: A. Cell lines and compounds—Fischer rat thyroid (FRT) cells co-expressing human wildtype CFTR and the halide indicator YFP-H148Q/1152L were generated as described (see, e.g., Ma et al., J. Clin. Invest. 110:1651-1658 (2002)). […] B. Compound Screening—Assays were performed using an automated screening platform (Beckman) equipped with FLUOStar fluorescence platereaders (BMG Lab Technologies, Offenburg, Germany) as described (see Ma et al., supra). […]
measurement.kind: inhibition at 5 µM (%)

molecule	measurement.kind	comparative.sign	reported
Cc1ccccc1-c1c2c(=O)n(C)c(=O)n(C)c2c2n1-c1ccccc1NC2c1ccccc1F (centres unmarked) [PPQ-234]	inhibition at 5 µM	=	53
Cc1ccc(C2Nc3ccccc3-n3c(-c4ccccc4C)c4c(=O)n(C)c(=O)n(C)c4c32)o1 (centres unmarked) [PPQ-103]	inhibition at 5 µM	=	63
Cc1cc2c(cc1C)-n1c(-c3ccccc3)c3c(=O)n(C)c(=O)n(C)c3c1C(c1ccccc1)N2 (centres unmarked) [PPQ-226]	inhibition at 5 µM	=	61
Cc1ccccc1-c1c2c(=O)n(C)c(=O)n(C)c2c2n1-c1ccccc1NC2c1cccs1 (centres unmarked) [PPQ-117]	inhibition at 5 µM	=	19
Cc1cc2c(cc1C)-n1c(-c3ccccc3)c3c(=O)n(C)c(=O)n(C)c3c1C(c1ccc(O)cc1)N2 (centres unmarked) [PPQ-203]	inhibition at 5 µM	=	80
Cn1c(=O)c2c(-c3ccccc3)n3c(c2n(C)c1=O)C(c1cccc(F)c1)Nc1ccccc1-3 (centres unmarked) [PPQ-239]	inhibition at 5 µM	=	45
Cc1cccc(C2Nc3ccccc3-n3c(-c4ccccc4)c4c(=O)n(C)c(=O)n(C)c4c32)c1 (centres unmarked) [PPQ-232]	inhibition at 5 µM	=	67
COc1ccc(-c2c3c(=O)n(C)c(=O)n(C)c3c3n2-c2ccccc2NC3c2cccc(F)c2F)cc1 (centres unmarked) [PPQ-252]	inhibition at 5 µM	<	10
